Item-by-item account of IC50
# SYSTEM UNDER TEST: HCV polymerase (NS5B) type 1b (Hepatitis C virus genotype 1b, UniProt P26663)
# Construct: a region encoding NS5B (J Virol 1991 March, 65(3), 1105-13, 544 amino acids after deletion of 47 amino acids on the C-terminal); 6xHis (C); made in house; host or cells: Escherichia coli
# Sequence (P26663 2420-2963): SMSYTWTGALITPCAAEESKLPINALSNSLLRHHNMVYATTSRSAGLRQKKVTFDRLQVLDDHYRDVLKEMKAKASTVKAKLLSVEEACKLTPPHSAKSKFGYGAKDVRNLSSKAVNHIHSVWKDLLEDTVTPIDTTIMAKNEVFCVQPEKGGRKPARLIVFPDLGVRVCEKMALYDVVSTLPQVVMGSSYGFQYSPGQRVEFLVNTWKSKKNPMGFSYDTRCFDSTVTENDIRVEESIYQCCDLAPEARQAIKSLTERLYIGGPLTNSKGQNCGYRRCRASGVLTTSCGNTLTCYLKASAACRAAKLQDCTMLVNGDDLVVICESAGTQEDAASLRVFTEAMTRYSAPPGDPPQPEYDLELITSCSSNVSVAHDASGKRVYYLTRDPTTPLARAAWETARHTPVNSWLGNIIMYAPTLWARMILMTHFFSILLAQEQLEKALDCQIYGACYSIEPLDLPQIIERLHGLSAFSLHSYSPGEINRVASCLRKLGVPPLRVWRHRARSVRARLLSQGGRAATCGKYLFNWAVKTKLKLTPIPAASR
# MEASUREMENT NOTES: Assay of enzyme (HCV polymerase) inhibitory activity, type 1b enzyme
# Assay type: biochemical, HCV BK strain (type 1b)
# CONDITION INFO: HCV polymerase inhibitory activity (IC50), 1b, type 1b enzyme 0.5 μg/ml, 25° C., 60 min

# COMPOUND, IC50
data = [
    ("CC(=O)N1CCN(S(=O)(=O)c2ccc(C(C)C)cc2)C(C(=O)NCc2ccc(-c3cnn(C)c3)cc2)C1 (stereo not shown)", "> 1000 nM"),
    ("CCCc1ccc(S(=O)(=O)N2CCN(C(=O)Nc3ccncc3)C[C@@H]2C(=O)NCc2ccc(C(C)C)cc2)cc1", "< 100 nM"),
    ("CC(=O)N1CCN(S(=O)(=O)c2ccc(C(C)C)cc2)[C@@H](C(=O)NCc2ccc(C(C)(C)CO)cc2)C1", "> 1000 nM"),
    ("CC(=O)N1CCN(S(=O)(=O)c2ccc(OC(F)(F)F)cc2)[C@@H](C(=O)NCc2csc(-c3cccs3)n2)C1", "> 1000 nM"),
]

###

Item-by-item account of IC50
# SYSTEM UNDER TEST: HCV polymerase (NS5B) type 1b (Hepatitis C virus genotype 1b)
# Construct: a region encoding NS5B (J Virol 1991 March, 65(3), 1105-13, 544 amino acids after deletion of 47 amino acids on the C-terminal); 6xHis (C); made in house; host or cells: Escherichia coli
# MEASUREMENT NOTES: Assay of enzyme (HCV polymerase) inhibitory activity, type 1b enzyme
# Format: biochemical, HCV BK strain (type 1b)
# CONDITION INFO: HCV polymerase inhibitory activity (IC50), 1b, type 1b enzyme 0.5 μg/ml, 25° C., 60 min

# MOLECULE, IC50
records = [
    ("CCC(F)(F)c1ccc(CNC(=O)[C@H]2CN(C(=O)Nc3ccnc(C(=O)OC(C)(C)C)c3)CCN2S(=O)(=O)c2ccc(OC(F)(F)F)cc2)cc1", "< 100 nM"),
    ("CCCc1ccc(CNC(=O)[C@H]2CN(C(=O)Nc3nc(CC(=O)OCC)cs3)CCN2S(=O)(=O)c2ccc(OC(F)(F)F)cc2)cc1", "100 to 1000 nM"),
    ("CCCc1ccc(CNC(=O)[C@H]2CN(c3cnc(C(=O)O)cn3)CCN2S(=O)(=O)c2ccc(CC)cc2)cc1", "< 100 nM"),
    ("CC(=O)N1CCN(S(=O)(=O)c2ccc(C(C)C)cc2)[C@@H](C(=O)NCCc2ccc(C(=O)O)cc2)C1", "> 1000 nM"),
    ("CC(=O)N1CCN(S(=O)(=O)c2ccc(C(C)(C)C)cc2)C(C(=O)NCc2ccc(C(F)(F)F)cc2)C1 (stereo not drawn)", "> 1000 nM"),
    ("CCC(F)(F)c1ccc(CNC(=O)[C@H]2CN(C(=O)Nc3nnc(C(F)(F)F)s3)CCN2S(=O)(=O)c2ccc(OC(F)(F)F)cc2)cc1", "> 1000 nM"),
]

Recorded values, source patent US8017612B2.
